Cited source for all entries: the nanobody polyreactivity screen of Harvey et al. (2022)

procedure_summary: yeast display, Sf9 membrane polyspecificity reagent, FACS + sequencing; frameworks hold sequencing errors

ordered_residues: QVQLVESGGGLVQAGGSLRLSCAASGYIFGHYAMGWSRQAPGKERELVAGITWRGGSTYYADSVKGRFTISRDNAKNTVYLQLNSLKPEDTAVYYCNAQYTQRWPYGLYYEMDYWGQGTQVSVSS
polyreactivity (PSR sort gate): low polyreactivity

ordered_residues: QVQLVESGGGLVQAGGSLRLSCAASGRTFTSNGMGWYRQAPGKERELVAAITSGTSTYYADSVKGRFTISRDNAKNTVYLQMNSLKPEDTAVYYCNKLVPRGSSYSTVIRGGGYWGQGTQVTVSS
polyreactivity (PSR sort gate): high polyreactivity

ordered_residues: QVQLVDSGGGLVQAGGSLRLSCAASGFTFSTNAMGWYRQAPGKERELVAGITSSGGNTYYADSVKGRFTISRDNAKNTVYLQMNSLKPEDTAVYYCAKRRNYVAYDYWGQGTQVTVSS
polyreactivity (PSR sort gate): high polyreactivity

ordered_residues: QVQLVESGGGLVQAGGSLRLSCGASGTIFDYYVMGWYRQAPVKERELVAAISWSGASTYYADSVKGRFTISRDNAKNTVYLQMNSLKPDDTAVYYCAADYGVNTLIDYDYWGQGTQVTVSS
polyreactivity (PSR sort gate): low polyreactivity

ordered_residues: QVQVVESGGGLVQAGGSLRLSCAASGFTIFSYAMGWYRQAPGKERELVAAISRRGGSTYYADSVKGRFTISRDNAKNTVYLQMNSLKPEDTAVYYCNAKWTSHGTYAEDYWGQGTQVTVSS
polyreactivity (PSR sort gate): high polyreactivity
